Molecular target: OsWRKY34 (Oryza sativa, UniProt Q0JBA9 1-250)
Sequence (Q0JBA9 entry or part of it): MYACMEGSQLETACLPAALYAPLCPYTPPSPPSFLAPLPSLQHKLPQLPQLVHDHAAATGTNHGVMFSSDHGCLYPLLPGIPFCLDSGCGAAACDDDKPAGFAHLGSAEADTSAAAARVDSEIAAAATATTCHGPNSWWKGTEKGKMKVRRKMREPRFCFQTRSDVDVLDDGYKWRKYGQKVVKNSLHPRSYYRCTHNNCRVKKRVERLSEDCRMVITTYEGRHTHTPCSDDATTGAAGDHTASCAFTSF
Test: protein-binding microarray (RPBM); PBS, 2% BSA, 51.3 ng/ul salmon testes DNA, 50 uM zinc acetate, 200 nM TF, 25 C, 1 h; high values mean tight binding
Settings: protein: recombinant; tags: N-terminal polyhistidine and DsRed monomer fusion (pET32a); label: CyDye5-dUTP incorporated in the synthesized complementary strand; 3' TTTTT single-stranded linker to array surface; dsDNA, one strand shown
The full ranking holds about 68,000 sequences; the median of “fluorescence intensity (a.u.)” is about 9,100, and the highest 2% start at about 16,000. Many of the other results were omitted from the sample, so the highest values are more common in it than they were.
RECORDED METRIC: binding signal

[in] Assign binding signal to the following record: CGTTCGCGTTTCGGTTTGACCGCGCGTCTCGCCTAGATTTCGGAGTCACCTAGTGCAG
[out] 8650 fluorescence intensity (a.u.)

[in] Assign binding signal to the following record: TGTGTGAGATTTTTGCATGTTTTTGTTGTGTTTGTTCATACGGAGTCACCTAGTGCAG
[out] 8580 fluorescence intensity (a.u.)

[in] Assign binding signal to the following record: TAAATCCACGACCCTTCAGCTATCTATCTCAGCTCCAATCCGGAGTCACCTAGTGCAG
[out] 8170 fluorescence intensity (a.u.)

[in] Assign binding signal to the following record: TTGTCCTCAGCCGGCAGTGTAGGTTCCGGGAGGGCGGGGTCGGAGTCACCTAGTGCAG
[out] 19300 fluorescence intensity (a.u.)

[in] Assign binding signal to the following record: TAAGACGTTTTGACTTTGGTCAAACTGTTTGGTCAAAGTCCGGAGTCACCTAGTGCAG
[out] 10600 fluorescence intensity (a.u.)

[in] Assign binding signal to the following record: CTACAGCCTCACACCGTCTCTCCTGCACCAGTTCCACGGACGGAGTCACCTAGTGCAG
[out] 9510 fluorescence intensity (a.u.)

[in] Assign binding signal to the following record: CCACACTTGCCCGCTACCCACTCTGATCTATCTCCACTGTCGGAGTCACCTAGTGCAG
[out] 9630 fluorescence intensity (a.u.)

[in] Assign binding signal to the following record: TTCAAAATGTTTGATACCGTTGACTTTTTAGCACATTTTGCGGAGTCACCTAGTGCAG
[out] 29400 fluorescence intensity (a.u.)

[in] Assign binding signal to the following record: CTAAAATTTCCTTATGTTTTCTTCTTCTTCTAGTTATGTGCGGAGTCACCTAGTGCAG
[out] 8800 fluorescence intensity (a.u.)

[in] Assign binding signal to the following record: AGAGTTTGGCATACTCCTACGTATCATTGTCGACCTTTAGCGGAGTCACCTAGTGCAG
[out] 8340 fluorescence intensity (a.u.)

[in] Assign binding signal to the following record: CGGCGGAGGAGGAGGAGGAGGGGTGGGGAAGAAGAGGGGACGGAGTCACCTAGTGCAG
[out] 22800 fluorescence intensity (a.u.)

[in] Assign binding signal to the following record: TTCTATGTTGTGGTTCTGTGTTTTACACTTCAGTTTTGTTCGGAGTCACCTAGTGCAG
[out] 8030 fluorescence intensity (a.u.)

[in] Assign binding signal to the following record: GCAGCAGGGAGGTGGGGCGCAGGAGGAAGAAGAAGAGGGACGGAGTCACCTAGTGCAG
[out] 13300 fluorescence intensity (a.u.)

[in] Assign binding signal to the following record: CGGCTAGGGTTTGTTTTTCTTTTCTTTTTTTCCTTTTCTTCGGAGTCACCTAGTGCAG
[out] 14300 fluorescence intensity (a.u.)

[in] Assign binding signal to the following record: CCACTCACTCTGTGTTTCACTTGCTGCCTTTCAGTTGCAACGGAGTCACCTAGTGCAG
[out] 8820 fluorescence intensity (a.u.)

[in] Assign binding signal to the following record: AAAGCCGTCGTATTGTCATCCGCCGCTCGCTGACTCATTCCGGAGTCACCTAGTGCAG
[out] 8310 fluorescence intensity (a.u.)

[in] Assign binding signal to the following record: TGTTTATCTATTTTGTGTTGGTATTATTATTTCTTGTATACGGAGTCACCTAGTGCAG
[out] 8850 fluorescence intensity (a.u.)

[in] Assign binding signal to the following record: AAGGTGGTGGGGCAGGTGGAGCGGGTGGTCGGGGCGACGCCGGAGTCACCTAGTGCAG
[out] 11300 fluorescence intensity (a.u.)

[in] Assign binding signal to the following record: TGGTTGGTTTGTTGGGTTCTTTTCCTTTTTTTTGTTTCTTCGGAGTCACCTAGTGCAG
[out] 26700 fluorescence intensity (a.u.)

[in] Assign binding signal to the following record: GACTTTTTAGCACATTTTTGACCGTTCATCTTATTCAAAACGGAGTCACCTAGTGCAG
[out] 8780 fluorescence intensity (a.u.)

[in] Assign binding signal to the following record: CTTTAGTTAAAGTCAAAGTGCTTCAAGTTTGACTAAGTTTCGGAGTCACCTAGTGCAG
[out] 9150 fluorescence intensity (a.u.)

[in] Assign binding signal to the following record: CACTTCTTTTCTCTATGGCGGCATCTGAATCTATGTGGATCGGAGTCACCTAGTGCAG
[out] 9450 fluorescence intensity (a.u.)

[in] Assign binding signal to the following record: ATTGTTATGTTCCTTTGTTTTCTTATAAATATAATTTAATCGGAGTCACCTAGTGCAG
[out] 9560 fluorescence intensity (a.u.)

[in] Assign binding signal to the following record: GGTGGGAGCACGATGCGGGACGTGGGGTGGGATCGGAAGCCGGAGTCACCTAGTGCAG
[out] 8590 fluorescence intensity (a.u.)

[in] Assign binding signal to the following record: TGGCGCGTGGGAGGGTCAGCCTAGGGCGTCGGAGGGGCGGCGGAGTCACCTAGTGCAG
[out] 13400 fluorescence intensity (a.u.)

[in] Assign binding signal to the following record: TTCGTTGACCAAGTTTAATTCAAATTCAATTCAATTTTAACGGAGTCACCTAGTGCAG
[out] 9760 fluorescence intensity (a.u.)

[in] Assign binding signal to the following record: CGAGGTCGTTTGGTTTTCTTTTCCTTTTTGGTTGTGTGTTCGGAGTCACCTAGTGCAG
[out] 9070 fluorescence intensity (a.u.)

[in] Assign binding signal to the following record: GACGGTGGCCATTCTAATTCCTCTATTGCAGGGTCTAACTCGGAGTCACCTAGTGCAG
[out] 8310 fluorescence intensity (a.u.)

[in] Assign binding signal to the following record: AGTTTTTTTTTCAGCTTTTTGGTTTCTTTTGCTGTTGTTTCGGAGTCACCTAGTGCAG
[out] 10300 fluorescence intensity (a.u.)

[in] Assign binding signal to the following record: TGGTGTTGTTGGTGTCGTCTTGTTCTTGTTTGTGTTTTCTCGGAGTCACCTAGTGCAG
[out] 15900 fluorescence intensity (a.u.)

[in] Assign binding signal to the following record: TTTCGGTTTTGCTACTTCACATGCGCATATTTTTGGAGGGCGGAGTCACCTAGTGCAG
[out] 9330 fluorescence intensity (a.u.)

[in] Assign binding signal to the following record: CGAGGTTCTTTGCTTCATACTTTTTTTTGGTGTTCTACTTCGGAGTCACCTAGTGCAG
[out] 11200 fluorescence intensity (a.u.)

[in] Assign binding signal to the following record: AGGTTCCGGGAGGGCGGGGTGGAGCACGAGGCGGCGGTGCCGGAGTCACCTAGTGCAG
[out] 10600 fluorescence intensity (a.u.)

[in] Assign binding signal to the following record: GATTGAGGGGAATGTTCCATGTTTTGTTGAACTCTTTTCCCGGAGTCACCTAGTGCAG
[out] 9320 fluorescence intensity (a.u.)

[in] Assign binding signal to the following record: GGCCCTGAGCTCTCTCTTGCTGCTTCTTTTAATGGGTTTTCGGAGTCACCTAGTGCAG
[out] 9680 fluorescence intensity (a.u.)

[in] Assign binding signal to the following record: GCGGCAGGTTTCGGCGGCGGGGCGGGCGGCAGGTGTCGGCCGGAGTCACCTAGTGCAG
[out] 20000 fluorescence intensity (a.u.)

[in] Assign binding signal to the following record: GTGGGTATGGTTGACTTGACGGACGTACTACTCCATACTACGGAGTCACCTAGTGCAG
[out] 8190 fluorescence intensity (a.u.)

----------
Provide the recorded binding signal for the entries that follow.
Molecular target: OsWRKY34 (Oryza sativa, UniProt Q0JBA9 1-250)
Assay: protein-binding microarray (RPBM); PBS, 2% BSA, 51.3 ng/ul salmon testes DNA, 50 uM zinc acetate, 200 nM TF, 25 C, 1 h; high values mean tight binding
Details: protein: recombinant; tags: N-terminal polyhistidine and DsRed monomer fusion (pET32a); label: CyDye5-dUTP incorporated in the synthesized complementary strand; 3' TTTTT single-stranded linker to array surface; dsDNA, one strand shown
Over roughly 68,000 sequences, “fluorescence intensity (a.u.)” has its median near 9,100; the highest 2% begin near 16,000. The sample holds the highest values, similar sequences and a random draw of the others, so the mix is not that of the screen.

[in] Assign binding signal to the following record: CATATGTTTACACCCAAATTTGGCACCTAGGATTAAAATACGGAGTCACCTAGTGCAG
[out] 8350 fluorescence intensity (a.u.)

[in] Assign binding signal to the following record: GCGATCTTCGCGGCTTCACCATCATACCTGCAACTGCAACCGGAGTCACCTAGTGCAG
[out] 8220 fluorescence intensity (a.u.)

[in] Assign binding signal to the following record: GGGGTTCGTTTTGTTTCTTGACACACGCTTGAGTCTTATTCGGAGTCACCTAGTGCAG
[out] 16900 fluorescence intensity (a.u.)

[in] Assign binding signal to the following record: TAGTACAATGGGTGCCCTCAACGGAATAAACCGCTATACCCGGAGTCACCTAGTGCAG
[out] 37000 fluorescence intensity (a.u.)

[in] Assign binding signal to the following record: CTCCTCCCAACTTTCCCCTTTGCTACAGTAGCTCCTTCTTCGGAGTCACCTAGTGCAG
[out] 8100 fluorescence intensity (a.u.)

[in] Assign binding signal to the following record: TCAAAGGTTGGTTTGATTTGTTGCTATTTGTTGGTTTGATCGGAGTCACCTAGTGCAG
[out] 8630 fluorescence intensity (a.u.)

[in] Assign binding signal to the following record: ACTTCTACCTTTCGTTTTTCCACGCGCATATGCTTTTTGACGGAGTCACCTAGTGCAG
[out] 20300 fluorescence intensity (a.u.)

[in] Assign binding signal to the following record: ACCCTCCACCCGCCACCGCCACCGCCGCCTTCGCCGCCGCCGGAGTCACCTAGTGCAG
[out] 9250 fluorescence intensity (a.u.)

[in] Assign binding signal to the following record: AGCCTTCCGGTGAACTCCGGCGACGGGCGGGTGTGGGGATCGGAGTCACCTAGTGCAG
[out] 11000 fluorescence intensity (a.u.)

[in] Assign binding signal to the following record: ATTTTGTGTTTTTGTGGTGGTAATATTGTTTTTGAGTTCTCGGAGTCACCTAGTGCAG
[out] 9700 fluorescence intensity (a.u.)

[in] Assign binding signal to the following record: TAAAATTCTGTTCCGCCGCGTTTGCCCTCGTCAACTAATCCGGAGTCACCTAGTGCAG
[out] 9750 fluorescence intensity (a.u.)

[in] Assign binding signal to the following record: ACCTAGTACGTATACACCTCAATCCATTATAAATAGCAACCGGAGTCACCTAGTGCAG
[out] 8280 fluorescence intensity (a.u.)

[in] Assign binding signal to the following record: ATCTTTTCCGCTGTTGCTGCTCCTCCTTTCTCGCTCTCGCCGGAGTCACCTAGTGCAG
[out] 9750 fluorescence intensity (a.u.)

[in] Assign binding signal to the following record: ACCTTCGGTGTACTTTTTCCTTAGTCTGCCGGCTTATTTACGGAGTCACCTAGTGCAG
[out] 9490 fluorescence intensity (a.u.)

[in] Assign binding signal to the following record: CATTGTGCGCTCTGGAGAGGCTCCAAACCACCATTGTTCGCGGAGTCACCTAGTGCAG
[out] 8090 fluorescence intensity (a.u.)

[in] Assign binding signal to the following record: GCGGGTGTGGCATTGTGGGTAATCTCGGCCGTTCAAATATCGGAGTCACCTAGTGCAG
[out] 17300 fluorescence intensity (a.u.)

[in] Assign binding signal to the following record: TCCCACCTTCCGCTCGTTTTTCTTGAGCATATGCTTCTCACGGAGTCACCTAGTGCAG
[out] 10100 fluorescence intensity (a.u.)

[in] Assign binding signal to the following record: TTCTTTTCTTTTTCTTTTTCGTTTTCTTCTTATTCTTTTTCGGAGTCACCTAGTGCAG
[out] 12900 fluorescence intensity (a.u.)

[in] Assign binding signal to the following record: ATCCCAAAATAATGTGTTCGGGTGGGCGGGCGGGAAATATCGGAGTCACCTAGTGCAG
[out] 23000 fluorescence intensity (a.u.)
